# run_description: microbe, parasite or virus in culture
# stated_conditions: Mycobacterium tuberculosis, 72 h, read-out: pIC50 (converted)
We'd kindly ask you to apply these IC50 classes: LOW: < 50 µM; MID: ≥ 50 µM and < 300 µM; HIGH: ≥ 300 µM

Lookup: Which category fits this record: COc1cccc(S(=O)(=O)CCN2CCC(O)CC2)c1
Found: HIGH

Lookup: Which category fits this record: CCn1nc(C)c2nc(C(C)C)nc(NCC(C)C)c21
Found: LOW

Lookup: Which category fits this record: C=C(Br)CN1CCN(CCNC(=O)C2CCC2)CC1
Found: MID

Lookup: Which category fits this record: O=C(c1cnsn1)N1CC=C(c2ccccc2)CC1
Found: LOW

Lookup: Which category fits this record: O=C(c1ccco1)N1CCCN(Cc2cscn2)CC1
Found: HIGH

Lookup: Which category fits this record: Cc1noc(NC(=O)c2ccc(OC(F)(F)F)cc2)n1
Found: LOW

Lookup: Which category fits this record: CN(C)C(CN)C1CCCCC1 (stereo not drawn)
Found: MID

Lookup: Which category fits this record: NCC1CCN(C2CCN(c3ccc(-c4ccco4)cc3)CC2)C1 (stereo not drawn)
Found: LOW

Lookup: Which category fits this record: O=C(Oc1nsnc1N1CCCCC1)N1CCOCC1
Found: MID

Lookup: Which category fits this record: CCC(C)(C)NC(=O)c1ccn(-c2ccccc2F)n1
Found: HIGH

Lookup: Which category fits this record: COc1ccc2c(c1)NCC(C)O2 (stereo not drawn)
Found: MID

Lookup: Which category fits this record: CC1CCN(S(=O)(=O)NC(C)C(C)C)CC1 (stereo not drawn)
Found: MID

====

# run_description: microbe, parasite or virus in culture
# stated_conditions: Mycobacterium tuberculosis, 72 h, read-out: pIC50 (converted)
quantity_name: log10 of IC50 (log10 of the value in µM)
Parameter value (number): base-10 log of IC50 in µM.

Lookup: What value of log10 of IC50 has been reported for the following compound? CCn1c(C(=O)N2CCOCC2C)cc2ccccc21 (centres undefined)
Found: 2.28

Lookup: What value of log10 of IC50 has been reported for the following compound? Nc1cc(-c2cccnc2)on1
Found: 2.45

Lookup: What value of log10 of IC50 has been reported for the following compound? CCOc1ccc(C(C)=O)cc1CN1CCCC1
Found: 1.78

Lookup: What value of log10 of IC50 has been reported for the following compound? NCCc1ccc(N2CCOCC2)c(F)c1
Found: 2.19

Lookup: What value of log10 of IC50 has been reported for the following compound? N#Cc1cccnc1N1CCCNCC1
Found: 2.68

Lookup: What value of log10 of IC50 has been reported for the following compound? c1ccc2oc(NC3CCCN(Cc4noc(C5CC5)n4)C3)nc2c1 (centres undefined)
Found: 1.40

Lookup: What value of log10 of IC50 has been reported for the following compound? Cc1ccc(OC(C)CN)cc1 (centres undefined)
Found: 1.89

Lookup: What value of log10 of IC50 has been reported for the following compound? Clc1ccc2c(c1)CNCCO2
Found: 1.52

Lookup: What value of log10 of IC50 has been reported for the following compound? NCCCc1cccc(F)c1
Found: 1.87

Lookup: What value of log10 of IC50 has been reported for the following compound? CNC(=O)CN1CCC(OCCCc2ccccc2)C1 (centres undefined)
Found: 2.21

Lookup: What value of log10 of IC50 has been reported for the following compound? COc1cc(OC)c(NC(=O)Cn2ccnc2)cc1Cl
Found: 2.39

Lookup: What value of log10 of IC50 has been reported for the following compound? OCC(O)CSCCc1ccccc1Cl (centres undefined)
Found: 2.13

====

Provide the reported IC50 of each item.
# run_description: In vitro enzyme assay to detect hydrolysis of chlorophenol red-beta-D-[…] directly proportional to the number of Toxoplasma stably expressing beta-galactosidase
# Format: functional, organism-based, Toxoplasma gondii
# stated_conditions: Toxoplasma gondii

Lookup: What value of IC50 has been reported for the following compound? COCCNC(=O)Nc1cc(Cl)ccc1OC
Found: > 50.1 µM

Lookup: What value of IC50 has been reported for the following compound? CCC(CC)C(O)CNC(=O)NCC1CC1 (stereo not drawn)
Found: > 50.1 µM

Lookup: What value of IC50 has been reported for the following compound? Cc1ccc(F)cc1S(=O)(=O)N1C[C@H](C2CC2)[C@@H](N)C1
Found: > 50.1 µM

Lookup: What value of IC50 has been reported for the following compound? Cc1[nH]c2ccccc2c1-c1ccnc(N[C@H](CO)CC(C)C)n1
Found: > 50.1 µM

Lookup: What value of IC50 has been reported for the following compound? Cc1cc(C2CCCN(CC(=O)Nc3nc4c(s3)CCC4)C2)n[nH]1 (stereo not drawn)
Found: 0.781 µM

Lookup: What value of IC50 has been reported for the following compound? Cc1ccoc1C(=O)Nc1cccc(CO)n1
Found: > 50.1 µM

Lookup: What value of IC50 has been reported for the following compound? O=C(NCCc1ncc[nH]1)c1cccnc1SC(F)F
Found: > 50.1 µM

Lookup: What value of IC50 has been reported for the following compound? C[C@@H]1CN(C2CCN(c3ccccc3F)CC2)CC[C@]1(C)O
Found: > 50.1 µM

Lookup: What value of IC50 has been reported for the following compound? Brc1ccc(NCc2ccc(Cn3ccnc3)cc2)nc1
Found: 29.6 µM

Lookup: What value of IC50 has been reported for the following compound? CC(C)(C)OC(=O)NCC1CC(C(N)=O)=NO1 (stereo not drawn)
Found: > 50.1 µM

Lookup: What value of IC50 has been reported for the following compound? CCNc1ccc(C(F)(F)F)cn1
Found: > 50.1 µM

Lookup: What value of IC50 has been reported for the following compound? Cc1cc(CN)nc(N(C)C)n1
Found: > 50.1 µM

Lookup: What value of IC50 has been reported for the following compound? Cn1cccc1C(=O)OCCCN1CCOCC1
Found: > 50.1 µM

Lookup: What value of IC50 has been reported for the following compound? CN1C(=O)c2cccn2CC1CNC(=O)c1ccco1 (stereo not drawn)
Found: > 50.1 µM

Lookup: What value of IC50 has been reported for the following compound? CCNc1ncc2c(n1)CN(c1ccc(Cl)cc1)C2=O
Found: > 50.1 µM

Lookup: What value of IC50 has been reported for the following compound? Nc1nnc(SCc2ccc(Cl)s2)[nH]1
Found: > 50.1 µM

Lookup: What value of IC50 has been reported for the following compound? Cc1ccc(NC(=O)CCCNC(=O)C2CC2)cc1
Found: > 50.1 µM

Lookup: What value of IC50 has been reported for the following compound? NCCC(=O)Nc1ccccc1
Found: > 50.1 µM

Lookup: What value of IC50 has been reported for the following compound? c1cnc(-c2nn3c(CN4CCCCC4)nnc3s2)cn1
Found: > 50.1 µM

Lookup: What value of IC50 has been reported for the following compound? Cn1cc(CN2C[C@@H]3COC[C@H](C(=O)Nc4cccnc4)[C@@H]3C2)cn1
Found: > 50.1 µM

Lookup: What value of IC50 has been reported for the following compound? CCC(=O)c1nccn1C
Found: > 50.1 µM

Lookup: What value of IC50 has been reported for the following compound? Cc1ccc(C(=O)Nc2c(C(=O)N(C)C)nn(C)c2C)cc1C
Found: > 50.1 µM

Lookup: What value of IC50 has been reported for the following compound? CN(Cc1cccc(C#N)c1)Cc1ccnc(N)c1
Found: > 50.1 µM

Lookup: What value of IC50 has been reported for the following compound? CCCc1nc2c(c(C)c(C)n2Cc2ccccn2)c(N)c1CC
Found: 10.4 µM

Lookup: What value of IC50 has been reported for the following compound? Nc1n[nH]c(SCc2ccc3c(c2)OCCO3)n1
Found: > 50.1 µM

Lookup: What value of IC50 has been reported for the following compound? O=C(OCCOc1cccnc1)C1CC1
Found: > 50.1 µM

Lookup: What value of IC50 has been reported for the following compound? CCNC(C)(C)C(=O)N(C)Cc1ccc(OC)c(F)c1
Found: > 50.1 µM

Lookup: What value of IC50 has been reported for the following compound? Cc1[nH]/c(=N\C(=O)c2csc(NC3CCCC3)n2)sc1C
Found: 3.16 µM

Lookup: What value of IC50 has been reported for the following compound? Cc1cc(C(=O)NCCc2noc(C3CC3)n2)nn1C
Found: > 50.1 µM

Lookup: What value of IC50 has been reported for the following compound? NC1CCN(Cc2ccccc2)C1=O (stereo not drawn)
Found: > 50.1 µM

Lookup: What value of IC50 has been reported for the following compound? Cc1ncc(C(=O)N2C[C@@H]3CCCN[C@@H]3C2)c(C)n1
Found: > 50.1 µM

Lookup: What value of IC50 has been reported for the following compound? CCn1c(SCC(N)=O)nnc1C(C)NC(=O)c1ccc(Cl)cc1 (stereo not drawn)
Found: > 50.1 µM

Lookup: What value of IC50 has been reported for the following compound? COc1ccc(C(=O)Nc2c(C(=O)N(C)C)nn(C)c2C)cc1
Found: > 50.1 µM

Lookup: What value of IC50 has been reported for the following compound? NCC(O)c1ccc(-c2ccccc2)cc1 (stereo not drawn)
Found: > 25.1 µM

Lookup: What value of IC50 has been reported for the following compound? CCC(C)Oc1ccc(CNCCc2c[nH]cn2)cc1Cl (stereo not drawn)
Found: 29 µM

Lookup: What value of IC50 has been reported for the following compound? CN[C@@H]1COc2ccccc2[C@H](O)C1
Found: > 50.1 µM

Lookup: What value of IC50 has been reported for the following compound? CS(=O)(=O)Nc1ccccc1CNC(=O)c1ccoc1
Found: > 50.1 µM

Lookup: What value of IC50 has been reported for the following compound? OCc1cc2ccccc2nc1N1CCSCC1
Found: > 50.1 µM

Lookup: What value of IC50 has been reported for the following compound? CC(NC(=O)c1ccc(Cl)cc1)c1nnc(SCC(=O)O)n1C (stereo not drawn)
Found: 29.3 µM

Lookup: What value of IC50 has been reported for the following compound? CCNC(=O)CN1CCCC(c2nccn2CC)C1 (stereo not drawn)
Found: > 50.1 µM

Lookup: What value of IC50 has been reported for the following compound? COCCNc1cc(C)nn2cnnc12
Found: > 50.1 µM

Lookup: What value of IC50 has been reported for the following compound? COCCC1(CN2CCC(C(N)=O)C2)CCC1 (stereo not drawn)
Found: > 50.1 µM

Lookup: What value of IC50 has been reported for the following compound? COc1ccccc1N1CCCC(N)C1 (stereo not drawn)
Found: > 50.1 µM

Lookup: What value of IC50 has been reported for the following compound? CC(=O)c1cccc(OCC(=O)Nc2cc(C)on2)c1
Found: > 50.1 µM

Lookup: What value of IC50 has been reported for the following compound? CN(C)C(=O)Nc1cc(F)cc(F)c1
Found: 2.1 µM

Lookup: What value of IC50 has been reported for the following compound? C(Cc1noc(C2CNC2)n1)OCC1CC1
Found: 24.8 µM

Lookup: What value of IC50 has been reported for the following compound? c1cc(SCCOCC2CCCO2)ccn1 (stereo not drawn)
Found: > 50.1 µM

Lookup: What value of IC50 has been reported for the following compound? CC(C)(C)c1cn2c(n1)C(CNCc1cnn3ccccc13)CCC2 (stereo not drawn)
Found: 2.52 µM

Lookup: What value of IC50 has been reported for the following compound? CCOCCNC(=O)c1cccnc1Sc1cc(OC)ccc1OC
Found: > 50.1 µM

Lookup: What value of IC50 has been reported for the following compound? Cc1[nH]c2ccccc2c1-c1ccnc(N[C@@H](CO)C(C)C)n1
Found: 19.8 µM

Lookup: What value of IC50 has been reported for the following compound? CCOc1ncccc1C(=O)NCC(C)N1CCCC1 (stereo not drawn)
Found: > 50.1 µM

Lookup: What value of IC50 has been reported for the following compound? Cc1nc(C2(NCc3c(C)nn(C)c3N3CCOCC3)CCC2)no1
Found: 25.3 µM

Lookup: What value of IC50 has been reported for the following compound? CCN1CCN(Cc2nnnn2C2CC2)CC1
Found: > 50.1 µM
